Test: physchem
Details: PBS, pH 6.5, aqueous buffer, kinetic from dmso stock
Label True when solubility >= 10 µM; otherwise False.

Example entries begin here.
- SMILES_INPUT: "Cc1ncsc1-c1ccc(CNC(=O)[C@@H]2C[C@@H](O)CN2C(=O)[C@@H](NC(=O)CCCCCCCCOc2cnc3c(C4CCN(C(=O)c5ccc(OC(F)(F)F)cc5)CC4)ncnc3c2)C(C)(C)C)cc1"
  ANSWER_LABEL: "False"
- SMILES_INPUT: "Cc1ncsc1-c1ccc(CNC(=O)[C@@H]2C[C@@H](O)CN2C(=O)[C@@H](NC(=O)Cc2ccc(OCCOc3cnc4c(C5CCN(C(=O)c6ccc(OC(F)(F)F)cc6)CC5)ncnc4c3)cc2)C(C)(C)C)cc1"
  ANSWER_LABEL: "False"
- SMILES_INPUT: "Cc1ncsc1-c1ccc(CNC(=O)[C@@H]2C[C@@H](O)CN2C(=O)[C@@H](NC(=O)CCOCCOCCOc2cnc3c(C4CCN(C(=O)c5ccc(OC(F)(F)F)cc5)CC4)ncnc3c2)C(C)(C)C)cc1"
  ANSWER_LABEL: "False"
- SMILES_INPUT: "Cc1ncsc1-c1ccc(CNC(=O)[C@@H]2C[C@@H](O)CN2C(=O)[C@@H](NC(=O)CCOCCNC(=O)COc2cnc3c(C4CCN(C(=O)c5ccc(OC(F)(F)F)cc5)CC4)ncnc3c2)C(C)(C)C)cc1"
  ANSWER_LABEL: "True"
- SMILES_INPUT: "Cc1ncsc1-c1ccc(CNC(=O)[C@@H]2C[C@@H](O)CN2C(=O)[C@@H](NC(=O)COCc2cn(CCOc3cnc4c(C5CCN(C(=O)c6ccc(OC(F)(F)F)cc6)CC5)ncnc4c3)nn2)C(C)(C)C)cc1"
  ANSWER_LABEL: "True"

Please look at the following compound next.
In: Could you tell me if the measured solubility of `Cc1ncsc1-c1ccc(CNC(=O)[C@@H]2C[C@@H](O)CN2C(=O)[C@@H](NC(=O)Cc2ccc(OCCOc3cnc4c(C5CCN(C(=O)c6ccc(OC(F)(F)F)cc6)CC5)ncnc4c3)cn2)C(C)(C)C)cc1` reaches 10 µM or more?
Out: False

* * *

Experiment: chromatographic Log D at pH 7.5
Type: physicochemical
Details: pH 7.5, chromatographic; supplement; read-out: LogD, pH 7.50
READOUT_KIND: chromatographic logD
Answers are plain numbers.

- SMILES_INPUT: "Cc1ncsc1-c1ccc(CNC(=O)[C@@H]2C[C@@H](O)CN2C(=O)[C@@H](NC(=O)CN2CCC(CCCOc3cnc4c(C5CCN(C(=O)c6ccc(OC(F)(F)F)cc6)CC5)ncnc4c3)CC2)C(C)(C)C)cc1"
  chromatographic logD: 3.64

# batch size: 2; output chromatographic logD per entry
1. Cc1ncsc1-c1ccc(CNC(=O)[C@@H]2C[C@@H](O)CN2C(=O)[C@@H](NC(=O)CN(C)CCCCCCOc2cnc3c(C4CCN(C(=O)c5ccc(OC(F)(F)F)cc5)CC4)ncnc3c2)C(C)(C)C)cc1
2. Cc1ncsc1-c1ccc(CNC(=O)[C@@H]2C[C@@H](O)CN2C(=O)[C@@H](NC(=O)CCCCCCCCOc2cnc3c(C4CCN(C(=O)c5ccc(OC(F)(F)F)cc5)CC4)ncnc3c2)C(C)(C)C)cc1

Out:
1. 3.74
2. 3.81

* * *

Experiment: in vitro
Details: 16 h, 10 μM, pH 7.4
READOUT_KIND: PAMPA Log[Pe (cm/s)]

- SMILES_INPUT: "Cc1ncsc1-c1ccc(CNC(=O)[C@@H]2C[C@@H](O)CN2C(=O)[C@@H](NC(=O)Cc2ccc(OCCOc3cnc4c(C5CCN(C(=O)c6ccc(OC(F)(F)F)cc6)CC5)ncnc4c3)cc2)C(C)(C)C)cc1"
  PAMPA Log[Pe (cm/s)]: "<−7.56 ± 0.30 cm/s"

Could you now look at the following molecule, please?
In: Can you share its PAMPA Log[Pe (cm/s)]? I mean this molecule: `Cc1ncsc1-c1ccc(CNC(=O)[C@@H]2C[C@@H](O)CN2C(=O)[C@@H](NC(=O)COCc2cn(CCOc3cnc4c(C5CCN(C(=O)c6ccc(OC(F)(F)F)cc6)CC5)ncnc4c3)nn2)C(C)(C)C)cc1`
Out: <−7.94 ± 0.20 cm/s
